target: equine FcRn (large alpha subunit p51) / equine beta-2-microglobulin complex, biotinylated (equine) (UniProt P30441); assay: SPR (Biacore), pH 6
Would you mind telling me the reported Kd of each entry?
State the answer as a number, implicitly in µM.

query: # query: Kd of entry equine IgG1 N434H (antibody, part only; not given: Variable domains, not shown: another chain or arm of the molecule) constant: ASTTAPKVFALAPGCGTTSDSTVALGCLVSGYFPEPVKVSWNSGSLTSGVHTFPSVLQSSGFYSLSSMVTVPASTWTSETYICNVVHAASNFKVDKRIEPIPDNHQKVCDMSKCPKCPAPELLGGPSVFIFPPNPKDTLMITRTPEVTCVVVDVSQENPDVKFNWYMDGVEVRTATTRPKEEQFNSTYRVVSVLRIQHQDWLSGKEFKCKVNNQALPQPIERTITKTKGRSQEPQVYVLAPHPDELSKSKVSVTCLVKDFYPPEINIEWQSNGQPELETKYSTTQAQQDSDGSYFLYSKLSVDRNRWQQGTTFTCGVMHEALHHHYTQKNVSKNPGK
result: 0.0041

query: # query: Kd of entry equine IgG4 K311Q (antibody, part only; not given: variable domains, not shown: another chain or arm of the molecule) constant: ASTTAPKVFPLASHSAATSGSTVALGCLVSSYFPEPVTVSWNSGALTSGVHTFPSVLQSSGLYSLSSMVTVPASSLKSQTYICNVAHPASSTKVDKKIVIKECNGGCPAECLQVGPSVFIFPPKPKDVLMISRTPTVTCVVVDVGHDFPDVQFNWYVDGVETHTATTEPKQEQFNSTYRVVSVLPIQHQDWLSGKEFKCKVNNKALPAPVERTISKPTGQPREPQVYVLAPHRDELSKNKVSVTCLVKDFYPTDIDIEWKSNGQPEPETKYSTTPAQLDSDGSYFLYSKLTVETNRWQQGTTFTCAVMHEALHNHYTEKSVSKSPGK
result: 0.0219
